# assay_info: xn = mol fraction of the nth substance listed
# condition: 363.15 K; 100 kPa; Liquid; Concentric cylinders viscometry; x2 = 0.25
Outcome: fulfilled for viscosity of at least 10 mPa·s; not fulfilled for anything lower.

compound | assigned_category
CCCCn1cc[n+](C)c1.F[P-](F)(F)(F)(F)F [1-butyl-3-methylimidazolium hexafluorophosphate] + CCCC[n+]1ccn(C)c1.O=S(=O)([N-]S(=O)(=O)C(F)(F)F)C(F)(F)F | fulfilled
CCCCn1cc[n+](C)c1.N#C[S-] [1-butyl-3-methylimidazolium thiocyanate] + CCCC[n+]1ccn(C)c1.O=S(=O)([N-]S(=O)(=O)C(F)(F)F)C(F)(F)F | not fulfilled
CCCCn1cc[n+](C)c1.COP(=O)([O-])OC [1-butyl-3-methyl-1H-imidazolium dimethylphosphate] + CCCC[n+]1ccn(C)c1.O=S(=O)([N-]S(=O)(=O)C(F)(F)F)C(F)(F)F | fulfilled
CCCCn1cc[n+](C)c1.O=S(=O)([O-])C(F)(F)F [1-butyl-3-methylimidazolium trifluoromethanesulfonate] + CCCC[n+]1ccn(C)c1.O=S(=O)([N-]S(=O)(=O)C(F)(F)F)C(F)(F)F | not fulfilled
CC(=O)[O-].CCCCn1cc[n+](C)c1 [1-butyl-3-methylimidazolium acetate] + CCCC[n+]1ccn(C)c1.O=S(=O)([N-]S(=O)(=O)C(F)(F)F)C(F)(F)F | fulfilled

====

# assay_info: xn = mol fraction of the nth substance listed
# condition: 303.15 K; 100 kPa; Liquid; Concentric cylinders viscometry; x2 = 0.25
readout_kind: viscosity (mPa·s)

compound | recorded_number
CC(=O)[O-].CCCCn1cc[n+](C)c1 [1-butyl-3-methylimidazolium acetate] + CCCC[n+]1ccn(C)c1.O=S(=O)([N-]S(=O)(=O)C(F)(F)F)C(F)(F)F | 138.72
CCCCn1cc[n+](C)c1.O=S(=O)([O-])C(F)(F)F [1-butyl-3-methylimidazolium trifluoromethanesulfonate] + CCCC[n+]1ccn(C)c1.O=S(=O)([N-]S(=O)(=O)C(F)(F)F)C(F)(F)F | 57.29
CCCCn1cc[n+](C)c1.F[P-](F)(F)(F)(F)F [1-butyl-3-methylimidazolium hexafluorophosphate] + CCCC[n+]1ccn(C)c1.O=S(=O)([N-]S(=O)(=O)C(F)(F)F)C(F)(F)F | 115.08
CCCCn1cc[n+](C)c1.COP(=O)([O-])OC [1-butyl-3-methyl-1H-imidazolium dimethylphosphate] + CCCC[n+]1ccn(C)c1.O=S(=O)([N-]S(=O)(=O)C(F)(F)F)C(F)(F)F | 307.85
CCCCn1cc[n+](C)c1.N#C[S-] [1-butyl-3-methylimidazolium thiocyanate] + CCCC[n+]1ccn(C)c1.O=S(=O)([N-]S(=O)(=O)C(F)(F)F)C(F)(F)F | 49.55

====

# assay_info: xn = mol fraction of the nth substance listed
# condition: 358.15 K; 100 kPa; Liquid; Vibrating tube method; x2 = 0.25
Form field: mass density (one value per entry).
readout_kind: mass density (kg/m3)

molecule | value_units | recorded_number
CCCCn1cc[n+](C)c1.N#C[S-] [1-butyl-3-methylimidazolium thiocyanate] + CCCC[n+]1ccn(C)c1.O=S(=O)([N-]S(=O)(=O)C(F)(F)F)C(F)(F)F | kg/m3 | 1154
CCCCn1cc[n+](C)c1.COP(=O)([O-])OC [1-butyl-3-methyl-1H-imidazolium dimethylphosphate] + CCCC[n+]1ccn(C)c1.O=S(=O)([N-]S(=O)(=O)C(F)(F)F)C(F)(F)F | kg/m3 | 1195.5
CC(=O)[O-].CCCCn1cc[n+](C)c1 [1-butyl-3-methylimidazolium acetate] + CCCC[n+]1ccn(C)c1.O=S(=O)([N-]S(=O)(=O)C(F)(F)F)C(F)(F)F | kg/m3 | 1139.1
CCCCn1cc[n+](C)c1.F[P-](F)(F)(F)(F)F [1-butyl-3-methylimidazolium hexafluorophosphate] + CCCC[n+]1ccn(C)c1.O=S(=O)([N-]S(=O)(=O)C(F)(F)F)C(F)(F)F | kg/m3 | 1338.6
CCCCn1cc[n+](C)c1.O=S(=O)([O-])C(F)(F)F [1-butyl-3-methylimidazolium trifluoromethanesulfonate] + CCCC[n+]1ccn(C)c1.O=S(=O)([N-]S(=O)(=O)C(F)(F)F)C(F)(F)F | kg/m3 | 1290
